- PROTOCOL DESCRIPTION: optical density change of DRC41 E. coli – strain DRC41, OD650, 24 h, E. coli filamentation project, primary screen (AID 1093);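 note: MC1000 strain lacking acrAB efflux and sulA so SOS filamentation is blocked; test concentration not given here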
- ASSAY SETUP: E. coli DRC41 growth, higher = more signal, called active from +8 up or from −8 down
Grouping rule (z-score): low bin = under -0.08, mid bin = from -0.08 up to 0.9, high bin = 0.9 and over

MOLECULE	CLASS
COC(=O)[C@@]1(Cc2ccccc2)[C@H]2c3cc(C(=O)N4CCCC4)n(Cc4ccccc4)c3C[C@H]2CN1C(=O)c1ccccc1	low bin
O=C1NC(=O)C2C1C=CC(C(O)CCc1ccccc1)N2Nc1ccccn1 (stereo not drawn)	low bin
CCCCC(O)C1C=CC2C(=O)N(Cc3ccccc3)C(=O)C2N1n1cnnc1 (stereo not drawn)	low bin
COCCCNC(=O)[C@@H]1c2ccccc2C(=O)N(Cc2cc(F)cc(C(F)(F)F)c2)[C@H]1c1ccc(CO)cc1	mid bin
CCOC(=O)C[C@H]1[C@H](OC(=O)c2ccc(C(=O)c3ccccc3)cc2)[C@@H](NC(=O)C2CCCCC2)c2cc(OCCCO)ccc2N1C(=O)Cc1ccc(OC)cc1	mid bin
O=C1C[C@@](C(=O)NCc2ccccc2)(c2ccc([N+](=O)[O-])cc2)[C@@H](c2ccc(CO)cc2I)N1C1CCCCC1	high bin
CC(C)C[C@@H]1NC(=O)[C@@H]2C[C@H](C(=O)NCCCC[N+](C)(C)C)[C@H](c3cccc(OCCO)c3)N2C1=O	low bin
CC(C)(C)OC(=O)CC[C@@]1(C(=O)N2CCCCC2)N=C(c2ccc(OCCCO)cc2)O[C@@H]1c1ccccc1N=[N+]=[N-]	high bin
C=CCC(OC(C)=O)[C@@H]1[C@@H](N(Cc2cccc3ccccc23)C(=O)c2ccc(C)cc2)c2cc(OCCCO)ccc2N1C(=O)c1ccc2ccccc2c1 (stereo partly drawn)	mid bin
COCCOC(=O)N1C(=O)[C@@]2(c3cc(C#Cc4ccc(OC)cc4)ccc31)[C@H](C(=O)N1CCc3cc(OC)c(OC)cc3C1)[C@H]1C(=O)O[C@H](c3ccccc3)[C@H](c3ccccc3)N1[C@@H]2c1ccc(O)cc1	high bin
CC(C)(C)OC(=O)CC[C@]1(C(=O)N2CCCCC2)N=C(c2ccc(OCCCO)cc2)O[C@H]1c1ccccc1CN=[N+]=[N-]	high bin
COCC1=C([C@H](O)CCc2ccccc2)[C@H](CO)[C@@H]2C(=O)N(C)C(=O)[C@@H]2C1	high bin
O=C1N(CCS(=O)(=O)c2ccccc2)Cc2ccccc2C[C@@]12COC(c1ccc(OCCCO)cc1)=N2	high bin
COC(=O)[C@@]1(Cc2ccc(F)cc2)[C@@H]2[C@@H](CC(=O)[C@H]2CC(=O)C(=O)N2CCCC2)CN1C(=O)c1ccccc1	low bin
COC(=O)[C@]1(Cc2ccccc2CN=[N+]=[N-])N=C(c2ccc(OCCCO)cc2)O[C@@H]1c1ccccc1	mid bin
C#CCOC(=O)N[C@H](C=CCCCC)c1ccccc1	mid bin
COCCOC(=O)N1C(=O)[C@@]2(c3cc(C#Cc4ccc(OC)cc4)ccc31)[C@H](C(=O)N1CCc3cc(OC)c(OC)cc3C1)[C@H]1C(=O)O[C@H](c3ccccc3)[C@H](c3ccccc3)N1[C@@H]2c1ccc(OCCO)cc1	mid bin
O=C1c2ccccc2[C@](Cc2ccccc2I)(C(=O)NC2CC2)[C@H](c2ccc(CO)cc2)N1Cc1ccccc1Cl	low bin
COC(=O)[C@@]1(Cc2ccc(OC)cc2)[C@H]2c3cc(C(=O)N4CCCC4)n(CCF)c3C[C@H]2CN1C(=O)c1ccccc1	low bin
Cc1ccc(S[C@]2(C(=O)NCCN3CCOCC3)CC(=O)N(C3Cc4ccccc4C3)[C@@H]2c2ccc(CO)cc2)cc1	mid bin
C=CC[C@@]1(C(=O)NCCN2CCOCC2)N=C(c2ccc(OCCCO)cc2)O[C@@H]1c1ccccc1	mid bin
NC(=O)NCC#Cc1ccc2c(c1)[C@]1(C(=O)N2)[C@H](c2ccc(OCCO)cc2)N2[C@H](c3ccccc3)[C@H](c3ccccc3)OC(=O)[C@H]2[C@@H]1C(=O)N1CCN(c2ncccn2)CC1	high bin
COCCOC(=O)N1C(=O)[C@@]2(c3cc(C#CCCO)ccc31)[C@H](C(=O)N1CCc3cc(OC)c(OC)cc3C1)[C@H]1C(=O)O[C@H](c3ccccc3)[C@H](c3ccccc3)N1[C@@H]2c1ccc(OCCO)cc1	high bin
C=CCOc1ccc([C@@H]2CC=C(C(=O)OCC)[C@H](c3cccc(Br)c3)N2S(=O)(=O)c2ccc(C)cc2)cc1	low bin
COCCCNC(=O)[C@@]1(Cc2ccccc2N=[N+]=[N-])N=C(c2ccc(OCCCO)cc2)O[C@H]1c1ccccc1CN=[N+]=[N-]	high bin
O=C1C2C=CC(C(O)c3ccc(Br)cc3)N(Nc3ccccc3)C2C(=O)N1c1ccccc1 (stereo not drawn)	low bin
C/C=C/[C@@H](CCn1cc([C@H](O)c2ccccc2)nn1)[Si](C)(C)c1ccc(OC)cc1	high bin
